Reference for the values: patent US10766869B2

Reported fold induction at 10 µM values for the following molecules.
System: primary rat mixed cortical cells
assay procedure: In vitro myelination assay (MBP positive myelin strands, fold myelin pixels above background)
Format: cell-based
conditions: Rattus norvegicus, 10.0 μM compound, relative to baseline of no added compound; read-out: Fold myelin pixels above background, 10.0 μM

Example entries and their recorded answers appear below.
{"molecule": "CC(C)(C)c1cc(Nc2ncn(-c3cc(F)cc(F)c3)n2)cc(N2CCN(C3COC3)CC2)c1", "fold induction at 10 µM": "≤ 1"}
{"molecule": "Cc1cc(Nc2ncn(-c3cc(F)cc(F)c3)n2)cc(N2CCN(C3COC3)CC2=O)c1", "fold induction at 10 µM": "10 to 100"}
{"molecule": "Cc1cc(Nc2ncn(-c3ccccc3)n2)cc(C2CCN(CC(F)F)C2)c1 (stereo not shown)", "fold induction at 10 µM": "≤ 1"}

Next item in the queue.
Ask | Param request: fold induction at 10 µM | system primary rat mixed cortical cells | item `COCC1CCN(c2cc(C)cc(Nc3ncn(-c4ccnc(F)c4)n3)c2)CC1`
Reply | 1000 to 10000
